Listing of entries alongside the reported DC50.
- Test Target: KRAS(G12D) (Homo sapiens, UniProt P01116, G12D)
- Construct: introduced immediately downstream of the initiating Methionine codon of the endogenous KRAS locus; host or cells: GP5d-HiBit-KRAS(G12D), a CRISPR knock-in at the endogenous locus
- Sequence (P01116 1-188 isoform P01116-2 G12D): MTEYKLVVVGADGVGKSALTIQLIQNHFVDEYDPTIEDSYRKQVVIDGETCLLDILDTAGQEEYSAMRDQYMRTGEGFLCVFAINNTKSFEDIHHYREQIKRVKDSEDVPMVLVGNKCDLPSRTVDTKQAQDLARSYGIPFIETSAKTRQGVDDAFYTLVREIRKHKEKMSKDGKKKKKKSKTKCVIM
- Procedure Details: HiBit degradation assay in GP5d-HiBit-KRAS(G12D) cells (18 h; DC50, Dmax)
- Assay type: cell-based
Endpoint Name: DC50 (nM)

compound="Cc1cc(CNC(=O)[C@@H]2C[C@@H](O)CN2C(=O)C(c2cc(OCCCCN3CCCN(c4nccc(-c5noc([C@@]6(C)CCCc7sc(N)c(C#N)c76)n5)n4)[C@@H](C)C3)no2)C(C)C)ccc1-c1scnc1C (stereo partly shown) [I-10]" endpoint_name=DC50 unit_label=nM measured_result=15.4
compound="Cc1ncsc1-c1ccc(CNC(=O)[C@@H]2C[C@@H](O)CN2C(=O)C(c2cc(OCCCN3CCCN(c4nccc(-c5noc([C@@]6(C)CCCc7sc(N)c(C#N)c76)n5)n4)[C@@H](C)C3)no2)C(C)C)cc1 (stereo partly shown) [I-1]" endpoint_name=DC50 unit_label=nM measured_result=6.4
compound="Cc1ncsc1-c1ccc([C@@H](NC(=O)[C@@H]2C[C@@H](O)CN2C(=O)[C@H](C(C)C)n2cc(OCCCCN3CCCN(c4nccc(-c5noc([C@@]6(C)CCCc7sc(N)c(C#N)c76)n5)n4)[C@@H](C)C3)nn2)[C@H](O)C(C)C)cc1 (single isomer, unassigned) [I-45]" endpoint_name=DC50 unit_label=nM measured_result=1.4
compound="Cc1ncsc1-c1ccc(CNC(=O)[C@@H]2C[C@@H](O)CN2C(=O)C(c2cc(OCCCCN3CCN(c4nccc(-c5noc([C@@]6(C)CCCc7sc(N)c(C#N)c76)n5)n4)[C@@H](C)C3)no2)C(C)C)cc1 (stereo partly shown) [I-11]" endpoint_name=DC50 unit_label=nM measured_result=35.1
compound="Cc1ncsc1-c1ccc([C@H](CO)NC(=O)[C@@H]2C[C@@H](O)CN2C(=O)C(C(C)C)n2cc(OCCCCN3C[C@H](C)N(c4nccc(-c5noc([C@@]6(C)CCCc7sc(N)c(C#N)c76)n5)n4)CCC3(C)C)nn2)cc1 (stereo partly shown) [I-32]" endpoint_name=DC50 unit_label=nM measured_result=7.6
compound="Cc1ncsc1-c1ccc([C@@H](NC(=O)[C@@H]2C[C@@H](O)CN2C(=O)[C@@H](C(C)C)n2cc(OCCCCN3CCCN(c4nccc(-c5noc([C@@]6(C)CCCc7sc(N)c(C#N)c76)n5)n4)[C@@H](C)C3)nn2)[C@H](O)C(C)C)cc1 (single isomer, unassigned) [I-44]" endpoint_name=DC50 unit_label=nM measured_result=49.7
compound="Cc1ncsc1-c1ccc([C@H](CCOP(=O)(O)O)NC(=O)[C@@H]2C[C@@H](O)CN2C(=O)[C@H](C(C)C)n2cc(OCCCCN3CCCN(c4nccc(-c5noc([C@@]6(C)CCCc7sc(N)c(C#N)c76)n5)n4)[C@@H](C)C3)nn2)cc1 [I-39]" endpoint_name=DC50 unit_label=nM measured_result=7.7
compound="CC(C)c1ccc(CNC(=O)[C@@H]2C[C@@H](O)CN2C(=O)C(c2cc(OCCCCN3CCCN(c4nccc(-c5noc([C@@]6(C)CCCc7sc(N)c(C#N)c76)n5)n4)[C@@H](C)C3)no2)C(C)C)cc1 (stereo partly shown) [I-23]" endpoint_name=DC50 unit_label=nM measured_result=76.7
compound="Cc1ncsc1-c1ccc([C@@H](NC(=O)[C@@H]2C[C@@H](O)CN2C(=O)[C@H](C(C)C)n2cc(OCCCCN3CCCN(c4nccc(-c5noc([C@@]6(C)CCCc7sc(N)c(C#N)c76)n5)n4)[C@@H](C)C3)nn2)[C@H](C)O)cc1 (single isomer, unassigned) [I-41]" endpoint_name=DC50 unit_label=nM measured_result=1.6
compound="Cc1ncsc1-c1ccc([C@@H](NC(=O)[C@@H]2C[C@@H](O)CN2C(=O)[C@H](C(C)C)n2cc(OCCCN3CCCN(c4nccc(-c5noc([C@@]6(C)CCCc7sc(N)c(C#N)c76)n5)n4)[C@@H](C)C3)nn2)[C@H](O)C(C)C)cc1 (single isomer, unassigned) [I-43]" endpoint_name=DC50 unit_label=nM measured_result=1.2
compound="CC(C)C(C(=O)N1C[C@H](O)C[C@H]1C(=O)NCc1ccc(Br)cc1)c1cc(OCCCCN2CCCN(c3nccc(-c4noc([C@@]5(C)CCCc6sc(N)c(C#N)c65)n4)n3)[C@@H](C)C2)no1 (stereo partly shown) [I-7]" endpoint_name=DC50 unit_label=nM measured_result=11
compound="Cc1ncsc1-c1ccc(CNC(=O)[C@@H]2C[C@@H](O)CN2C(=O)[C@@H](c2cc(OCCCN3CCCN(c4nccc(-c5noc([C@@]6(C)CCCc7sc(N)c(C#N)c76)n5)n4)[C@@H](C)C3)no2)C(C)C)cc1 (single isomer, unassigned) [I-25]" endpoint_name=DC50 unit_label=nM measured_result=2.3
compound="COC(=O)[C@H](NC(=O)[C@@H]1C[C@@H](O)CN1C(=O)C(C(C)C)n1cc(OCCCCN2CCCN(c3nccc(-c4noc([C@@]5(C)CCCc6sc(N)c(C#N)c65)n4)n3)[C@@H](C)C2)nn1)c1ccc(-c2scnc2C)cc1 (stereo partly shown) [I-33]" endpoint_name=DC50 unit_label=nM measured_result=13.1
compound="Cc1ncsc1-c1ccc(CNC(=O)[C@@H]2C[C@@H](O)CN2C(=O)C(c2cc(OCCCCN3CCCN(c4ccnc(-c5noc([C@@]6(C)CCCc7sc(N)c(C#N)c76)n5)n4)[C@@H](C)C3)no2)C(C)C)cc1 (stereo partly shown) [I-22]" endpoint_name=DC50 unit_label=nM measured_result=48.8
compound="Cc1ncsc1-c1ccc(CNC(=O)[C@@H]2C[C@@H](O)CN2C(=O)C(c2cc(OCCCCN3CCCN(c4nccc(-c5noc([C@@]6(C)CCCc7sc(N)c(C#N)c76)n5)n4)[C@@H](C)C3)no2)C(C)C)cc1F (stereo partly shown) [I-5]" endpoint_name=DC50 unit_label=nM measured_result=6.5
compound="Cc1ncsc1-c1ccc([C@H](CO)NC(=O)[C@@H]2C[C@@H](O)CN2C(=O)[C@H](C(C)C)n2cc(OC(C)CCCN3CCCN(c4nccc(-c5noc([C@@]6(C)CCCc7sc(N)c(C#N)c76)n5)n4)[C@@H](C)C3)nn2)cc1 (stereo partly shown) [I-31]" endpoint_name=DC50 unit_label=nM measured_result=4.4
